assay-target: Recombinant soluble 60-mer human BAFF (His-HuBAFF 134-285) (human, UniProt Q9Y275 134-285)
assay-details: cell-based or functional assay
measured-metric: Soluble 60-mer huBAFF (4 pM) Neutralization IC90
Numbers only, in pM.

# input Tell me its Soluble 60-mer huBAFF (4 pM) Neutralization IC90 given 384D5A2 (antibody, V domains shown) VH: QVTLKESGPGILQPSQTLSLTCSFSGFSLNTYGMGVGWIRQPSGKGLEWLANIWWNDDKYYNSALKSRLAISKDASNSQVFLKISSVDTTDTATYYCAQVAATIVTTYGAWFAYWGQGTLVTVSA VL: DIQMTQSPASLSVSVGETVTITCRSSENIYSSLAWYQQKQGKSPQLLVYAATNLAKGVPSRFSGSGSGTQYSLKINSLQSEDFGSYFCQHFWGSPFAFGSGTKLEIK as the entry.
# output 44

Please find the next binder below.
# input Tell me its Soluble 60-mer huBAFF (4 pM) Neutralization IC90 given 551H4D6 (antibody, V domains shown) VH: EVQLQQSGAELVRPGASVELSCTASGFNIKNDYLHWVKQRPEQGLEWIGWIDSANDKTKYAPKFQDKATITADPSSNTAYLQLSSLTSEDTAVYYCTRVGVQDGYYVRDFDYWGQGTTLTVSS VL: DIVLTQSPASLAVSLGQRATMSCRASESVDSYGNSFIHWYQQKPGQPPRLLIYRASNLNSGIPARFSGSGSRTDFTLTISSVEADDVATYYCHQNNEDPRTFGGGTKLEIK as the entry.
# output 1980
